- Test system: PPARa:RXRa (NR concentration 270 nM, RXRa partner concentration 90 nM)
- Test Description: PBM binding z-score (relative to random genomic background probes); higher = stronger binding; sequences stand for … in GC…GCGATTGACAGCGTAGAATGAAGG
Assay Metric: PBM binding z-score
Would you mind answering with just the numeric figure?

Example results:
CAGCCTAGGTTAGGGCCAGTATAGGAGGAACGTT | -0.175
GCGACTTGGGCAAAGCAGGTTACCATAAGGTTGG | 0.243
TCAGACAGGTAAAGGTAACTCAGGTACGCAGTCG | 1.48
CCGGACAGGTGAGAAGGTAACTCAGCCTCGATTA | 0.454
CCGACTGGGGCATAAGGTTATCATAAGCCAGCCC | 1.94

Proceeding to the next sequence to report its PBM binding z-score.
Prompt line: Entry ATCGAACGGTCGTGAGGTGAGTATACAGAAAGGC has what PBM binding z-score?
Response line: 0.134

====

- System: RARa homodimer (NR concentration 270 nM)
- Test Description: PBM binding z-score (relative to random genomic background probes); higher = stronger binding; sequences stand for … in GC…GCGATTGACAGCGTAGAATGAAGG
Assay Metric: PBM binding z-score

Example cases with answers are listed next.
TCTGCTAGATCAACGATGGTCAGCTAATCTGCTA | -1.3
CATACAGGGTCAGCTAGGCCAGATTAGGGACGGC | 0.588
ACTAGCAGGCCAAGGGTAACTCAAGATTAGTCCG | -0.543

Prompt line: Form field: reported PBM binding z-score of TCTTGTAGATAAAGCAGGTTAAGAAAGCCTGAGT
Response line: 0.783

Prompt line: Same question, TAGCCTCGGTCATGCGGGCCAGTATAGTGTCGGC this time
Response line: -0.888

Prompt line: Continue with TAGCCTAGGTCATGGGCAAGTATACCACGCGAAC
Response line: -0.000605

Prompt line: Again, but for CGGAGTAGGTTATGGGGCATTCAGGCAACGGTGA
Response line: 0.386

Prompt line: Now consider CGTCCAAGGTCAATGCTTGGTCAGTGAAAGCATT and answer again.
Response line: 0.0669

Prompt line: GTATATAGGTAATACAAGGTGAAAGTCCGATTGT ?
Response line: 1.09

Prompt line: Field entry: ATATGTAGGTTAAGGGTCAATCAGGTTGGTTCGC
Response line: 2.21

====

- Test system: LXRa:RXRa (NR concentration 270 nM, RXRa partner concentration 90 nM)
- Test Description: PBM binding z-score (relative to random genomic background probes); higher = stronger binding; sequences stand for … in GC…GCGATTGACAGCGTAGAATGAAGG
Assay Metric: PBM binding z-score
// no unit string in output, number only

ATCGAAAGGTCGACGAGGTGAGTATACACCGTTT | 3.32
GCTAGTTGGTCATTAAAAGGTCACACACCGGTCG | 4.83
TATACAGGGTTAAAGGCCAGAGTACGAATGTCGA | 2.59
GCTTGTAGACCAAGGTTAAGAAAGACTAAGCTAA | 0.608
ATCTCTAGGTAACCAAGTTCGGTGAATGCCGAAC | 0.167
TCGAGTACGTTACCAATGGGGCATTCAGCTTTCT | -0.26

Prompt line: Would you kindly share the measured PBM binding z-score for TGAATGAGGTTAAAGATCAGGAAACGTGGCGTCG ?
Response line: 2.5

Prompt line: Continue with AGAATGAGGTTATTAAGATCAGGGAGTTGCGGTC
Response line: 1.34

Prompt line: Now the sequence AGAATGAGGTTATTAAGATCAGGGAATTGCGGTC
Response line: 1.51

Prompt line: Same thing, different sequence: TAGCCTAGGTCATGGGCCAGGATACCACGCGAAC
Response line: 3.44

Prompt line: Now this one: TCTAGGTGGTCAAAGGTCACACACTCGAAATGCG
Response line: 5.79

Prompt line: Can you handle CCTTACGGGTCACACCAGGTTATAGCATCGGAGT next?
Response line: 6.35

Prompt line: Note, next up: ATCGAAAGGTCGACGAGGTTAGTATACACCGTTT
Response line: 3.75

Prompt line: What about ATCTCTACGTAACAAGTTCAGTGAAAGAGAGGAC ?
Response line: 0.5

Prompt line: Another sequence to look at: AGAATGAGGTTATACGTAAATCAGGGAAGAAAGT
Response line: 1.9

Prompt line: Continue with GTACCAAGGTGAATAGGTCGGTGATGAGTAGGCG
Response line: 0.247

====

Listed below: PBM binding z-score values for each entry.
- System: RXRa homodimer (NR concentration 180 nM)
- Test Description: PBM binding z-score (relative to random genomic background probes); higher = stronger binding; sequences stand for … in GC…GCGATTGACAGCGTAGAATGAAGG

Worked set:
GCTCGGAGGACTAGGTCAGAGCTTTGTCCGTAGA | -0.228
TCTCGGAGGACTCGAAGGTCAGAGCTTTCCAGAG | 1.41
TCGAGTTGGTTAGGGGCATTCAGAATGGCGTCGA | 0.163
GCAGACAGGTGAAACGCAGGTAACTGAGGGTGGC | 0.568
TCATATAGGTTATACAGGTGAAAGTCGGCATCTA | 2.2

Prompt line: May I ask what PBM binding z-score has been recorded for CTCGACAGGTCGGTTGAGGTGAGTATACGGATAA ?
Response line: 0.289

Prompt line: Again, but for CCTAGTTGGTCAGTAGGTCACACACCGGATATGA
Response line: 2.79

====

# PBM binding z-score annotations
- Test system: PPARg DBDmut:RXRa IVT, anti-PPARg (DBD mutation: PPARg1 K132A/R137A, NR concentration 270 nM, RXRa partner concentration 90 nM)
- Test Description: PBM binding z-score (relative to random genomic background probes); higher = stronger binding; sequences stand for … in GC…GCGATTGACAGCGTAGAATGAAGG
Answer with a number only.

See these solved cases before continuing.
CAAACTAGGTCAAAAGTCAAAGTCGAGCCAACCA | 0.975
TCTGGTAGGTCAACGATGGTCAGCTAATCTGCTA | 1.81
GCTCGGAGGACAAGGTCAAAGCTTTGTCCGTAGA | -1.59
ACAGACAGGTGATGAAGGTATCTCAGGCTATCAT | -0.0054
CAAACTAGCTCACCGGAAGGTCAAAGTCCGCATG | -0.25
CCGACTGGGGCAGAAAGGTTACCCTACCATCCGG | -1.08
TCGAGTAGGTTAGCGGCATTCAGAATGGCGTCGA | -1.28
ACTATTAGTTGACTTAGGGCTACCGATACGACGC | 1.14
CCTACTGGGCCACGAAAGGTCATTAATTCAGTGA | 1.7
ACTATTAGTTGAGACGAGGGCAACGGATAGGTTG | 0.418

Prompt line: Looking for the measured PBM binding z-score of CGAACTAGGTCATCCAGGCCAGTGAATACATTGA , can you help?
Response line: 3.15

====

PBM binding z-score for assorted sequences
- Tested on: PXR homodimer (NR concentration 270 nM)
- Test Description: PBM binding z-score (relative to random genomic background probes); higher = stronger binding; sequences stand for … in GC…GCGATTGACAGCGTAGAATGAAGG
API doc: respond with a numeric literal and nothing else, no unit.

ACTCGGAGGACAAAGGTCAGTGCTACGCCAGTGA | 0.26
ATCGCTAGGTAACCAAGTTCAGTGAATGCCGAAC | 1.12
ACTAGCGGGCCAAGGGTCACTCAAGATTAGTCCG | -0.327
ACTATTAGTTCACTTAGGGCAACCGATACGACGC | 5.76
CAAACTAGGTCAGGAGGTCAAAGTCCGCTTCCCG | 2.29
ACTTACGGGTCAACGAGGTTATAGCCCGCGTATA | 2.93

Let's switch to this sequence now.
Prompt line: Consider the sequence shown here: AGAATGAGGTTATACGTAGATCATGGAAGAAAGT What is its recorded PBM binding z-score?
Response line: 0.482

====

// values below are reported PBM binding z-score
- Test system: LXRb:RXRa (NR concentration 270 nM, RXRa partner concentration 90 nM)
- Test Description: PBM binding z-score (relative to random genomic background probes); higher = stronger binding; sequences stand for … in GC…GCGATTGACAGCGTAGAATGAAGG
Write the value as a bare number.

// solved cases for PBM binding z-score follow
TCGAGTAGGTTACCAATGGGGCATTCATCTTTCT | 1.21
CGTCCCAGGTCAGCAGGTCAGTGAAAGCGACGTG | 1.95

We next turn to a different sequence, shown below.
Prompt line: So what does the record say about PBM binding z-score for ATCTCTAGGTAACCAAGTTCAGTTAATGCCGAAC ?
Response line: 1.11
